# TESTED TARGET: proton pump (H+/K+-ATPase) (Sus scrofa, UniProt P19156)
# Construct: Gastric vesicles were prepared from hog stomach via centrifugal separation
# Sequence (P19156 whole entry): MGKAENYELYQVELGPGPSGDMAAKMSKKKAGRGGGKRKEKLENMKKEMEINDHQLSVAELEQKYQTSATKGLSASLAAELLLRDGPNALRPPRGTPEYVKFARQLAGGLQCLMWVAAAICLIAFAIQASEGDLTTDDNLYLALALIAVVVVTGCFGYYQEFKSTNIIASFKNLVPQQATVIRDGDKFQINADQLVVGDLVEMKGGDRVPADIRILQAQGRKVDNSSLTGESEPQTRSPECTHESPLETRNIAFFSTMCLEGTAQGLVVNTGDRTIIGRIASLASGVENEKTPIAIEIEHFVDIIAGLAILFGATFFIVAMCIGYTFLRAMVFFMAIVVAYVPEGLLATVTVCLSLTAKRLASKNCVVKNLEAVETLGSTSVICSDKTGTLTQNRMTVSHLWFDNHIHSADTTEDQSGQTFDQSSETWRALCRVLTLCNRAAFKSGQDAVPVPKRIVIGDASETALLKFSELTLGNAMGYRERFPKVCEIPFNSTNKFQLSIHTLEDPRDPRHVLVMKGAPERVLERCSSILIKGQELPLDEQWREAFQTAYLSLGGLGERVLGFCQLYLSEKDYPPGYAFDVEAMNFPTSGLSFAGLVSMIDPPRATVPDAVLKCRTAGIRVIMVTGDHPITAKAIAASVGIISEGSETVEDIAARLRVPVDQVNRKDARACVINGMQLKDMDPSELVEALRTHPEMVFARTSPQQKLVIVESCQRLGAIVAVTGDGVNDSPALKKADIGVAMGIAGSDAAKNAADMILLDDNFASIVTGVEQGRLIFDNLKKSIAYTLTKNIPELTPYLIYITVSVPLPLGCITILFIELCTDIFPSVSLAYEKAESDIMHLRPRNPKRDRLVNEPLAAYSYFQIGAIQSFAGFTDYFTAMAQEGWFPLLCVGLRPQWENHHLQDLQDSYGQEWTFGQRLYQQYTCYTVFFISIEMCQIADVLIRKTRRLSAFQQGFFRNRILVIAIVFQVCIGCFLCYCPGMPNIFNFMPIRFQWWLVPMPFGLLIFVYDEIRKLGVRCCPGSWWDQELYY
# Sequence (P18434 whole entry partner): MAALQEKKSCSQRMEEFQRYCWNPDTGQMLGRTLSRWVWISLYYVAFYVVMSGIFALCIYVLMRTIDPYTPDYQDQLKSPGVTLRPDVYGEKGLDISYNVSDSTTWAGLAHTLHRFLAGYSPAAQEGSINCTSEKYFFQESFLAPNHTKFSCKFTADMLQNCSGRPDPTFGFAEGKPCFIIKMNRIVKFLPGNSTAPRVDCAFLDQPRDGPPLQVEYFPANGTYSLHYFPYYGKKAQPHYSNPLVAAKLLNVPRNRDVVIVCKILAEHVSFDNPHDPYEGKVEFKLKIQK
# MEASUREMENT DESCRIPTION: Measurement of inhibitory effects on proton pump (H+/K+-ATPase) activities
# PARTICULARS: hog gastric vesicles, K+-specific H+/K+-ATPase activity, Tris-HCl buffer pH 7.4, 37° C. for 40 minutes, malachite green Pi readout
Where a name gives a salt, the structure may show the parent alone.
The label Condition met is reserved for IC50 strictly under 800 nM; Condition not met covers values equal to or above it.

Recorded results for 5 compounds are shown here.
CNCc1cn(S(=O)(=O)c2cccnc2)c2cc(Nc3cc(F)c(C)cc3F)ccc12 [Example 72, hydrochloride]: Condition met
CNCc1cn(S(=O)(=O)c2cccnc2)c2cc(Nc3ccc(OC(F)(F)F)cc3Cl)ccc12 [Example 55, hydrochloride]: Condition met
CNCc1cn(S(=O)(=O)c2cccnc2)c2cc(Nc3ccnc(Cl)c3Br)ccc12 [Example 133, hydrochloride]: Condition met
CNCc1cn(S(=O)(=O)c2cccnc2)c2cc(Nc3ccc(C(F)(F)F)cc3)ccc12 [Example 13, hydrochloride]: Condition not met
CNCc1cn(S(=O)(=O)c2cccc(C(F)(F)F)c2)c2cc(Nc3ccc(C(F)(F)F)cc3Cl)ccc12 [Example 187, hydrochloride]: Condition not met

Confirm or reject: IC50 of CNCc1cn(S(=O)(=O)c2cccnc2)c2cc(Cc3ccccc3)ccc12 [Example 268, hydrochloride] lies strictly below 800 nM
Condition met

Confirm or reject: IC50 of CNCc1cn(S(=O)(=O)c2cccc(F)c2)c2cc(Nc3ccc(C)cc3OC(F)(F)F)cnc12 [Example 340, hydrochloride] lies strictly below 800 nM
Condition met

###

Measured IC50 accompanies every entry in the list below.
# TESTED TARGET: proton pump (H+/K+-ATPase) (Sus scrofa)
# Construct: Gastric vesicles were prepared from hog stomach via centrifugal separation
# MEASUREMENT DESCRIPTION: Measurement of inhibitory effects on proton pump (H+/K+-ATPase) activities
# PARTICULARS: hog gastric vesicles, K+-specific H+/K+-ATPase activity, Tris-HCl buffer pH 7.4, 37° C. for 40 minutes, malachite green Pi readout
# Procedure: 1) Preparation of Gastric Vesicles Gastric vesicles were prepared from hog stomach via centrifugal separation (Edd C. Rabon et al., Preparation of Gastric H^+,K^+-ATPase, Methods in enzymology, vol. 157 Academic Press Inc., (1988), pp. 649-654). The protein contents of the thus prepared gastric vesicles were quantitated by Bicinchoninic Acid (BCA) kit. […] The inhibitory effects of the compounds of the present invention against proton pump activities were measured using a 96-well plate. […]
Counter-ions that a name gives are not always drawn.
The figure you give is taken to be in nM; do not add the unit.

Below, each entry is followed by its recorded IC50 result.
CNCc1cn(S(=O)(=O)c2cccnc2)c2cc(Nc3c(F)c(F)c(C(F)(F)F)c(F)c3F)ccc12 [Example 96, hydrochloride]: 1730
CNCc1cn(S(=O)(=O)c2cccc(F)c2)c2cc(Nc3ccc(Cl)cc3Cl)cnc12 [Example 342, hydrochloride]: 400
CNCc1cn(S(=O)(=O)c2cccc(C(F)(F)F)c2)c2cc(Nc3ccc(C)nc3Cl)ccc12 [Example 192, hydrochloride]: 60

# get_value(readout='IC50', item= CNCc1cn(S(=O)(=O)c2cncc(F)c2)c2cc(Nc3ccc(C(F)(F)F)nc3Cl)ccc12 [Example 218, hydrochloride] )
2920

# get_value(readout='IC50', item= CNCc1cn(S(=O)(=O)c2cccc(Cl)c2)c2cc(Nc3ccc(C(F)(F)F)nc3Cl)ccc12 [Example 161, hydrochloride] )
460

# get_value(readout='IC50', item= CNCc1cn(S(=O)(=O)c2cccnc2)c2cc(Cc3ccccc3F)ccc12 [Example 269, hydrochloride] )
770

# get_value(readout='IC50', item= CNCc1cn(S(=O)(=O)c2cccc(F)c2)c2cc(Nc3ccc(C)cc3F)ccc12 [Example 136, hydrochloride] )
710

# get_value(readout='IC50', item= CNCc1cn(S(=O)(=O)c2cccnc2)c2cc(Nc3ncccc3F)ccc12 [Example 99, hydrochloride] )
1380

# get_value(readout='IC50', item= CNCc1cn(S(=O)(=O)c2cccc(Cl)c2)c2cc(Nc3ccc(OC)nc3Cl)ccc12 [Example 160, hydrochloride] )
290

# get_value(readout='IC50', item= CNCc1cn(S(=O)(=O)c2cccnc2)c2cc(Nc3cc(C)ccc3F)ccc12 [Example 59, hydrochloride] )
350

# get_value(readout='IC50', item= CNCc1cn(S(=O)(=O)c2cccnc2)c2cc(Nc3ccc(F)cc3)ccc12 [Example 9, hydrochloride] )
1050

# get_value(readout='IC50', item= CNCc1cn(S(=O)(=O)c2cccnc2)c2cc(Cc3cccnc3OC)ccc12 [Example 282, hydrochloride] )
2920

# get_value(readout='IC50', item= CNCc1cn(S(=O)(=O)c2cccc(F)c2)c2cc(Nc3ccc(OC)nc3Cl)ccc12 [Example 144, hydrochloride] )
380

# get_value(readout='IC50', item= CCOc1c(F)ccc(Nc2ccc3c(CNC)cn(S(=O)(=O)c4cccnc4)c3c2)c1F [Example 69, hydrochloride] )
2350

###

# TESTED TARGET: proton pump (H+/K+-ATPase) (Sus scrofa)
# Construct: Gastric vesicles were prepared from hog stomach via centrifugal separation
# MEASUREMENT DESCRIPTION: Measurement of inhibitory effects on proton pump (H+/K+-ATPase) activities
# PARTICULARS: hog gastric vesicles, K+-specific H+/K+-ATPase activity, Tris-HCl buffer pH 7.4, 37° C. for 40 minutes, malachite green Pi readout
Structures can show the parent of a compound that is named as a salt.
Measured log10(IC50) accompanies every entry in the list below.
Please note: log10 values; quantity IC50; unit µM.

Below, each entry is followed by its recorded log10(IC50) result.
CNCc1cn(S(=O)(=O)c2cccc(OC(F)F)c2)c2cc(Nc3ccc(C)cc3F)ccc12 [Example 174, hydrochloride]: -1.70
CNCc1cn(S(=O)(=O)c2ccc(Cl)c(Cl)c2Cl)c2cc(Nc3ccc(C)cc3F)ccc12 [Example 240, hydrochloride]: 0.22
CNCc1cn(S(=O)(=O)c2cccc(Br)c2)c2cc(Nc3ccc(C)cc3F)ccc12 [Example 228, hydrochloride]: -0.05
CNCc1cn(S(=O)(=O)c2cccnc2)c2cc(Nc3ccc(C(F)(F)F)cc3Cl)ccc12 [Example 34, hydrochloride]: -0.41
Cc1ccc(Nc2ccc3c(C(=O)N(C)C)cn(S(=O)(=O)c4cccnc4)c3c2)c(Cl)n1: 1.34

Recorded log10(IC50) for CNCc1cn(S(=O)(=O)c2cccnc2)c2cc(Nc3ccc(F)cc3Cl)cnc12 [Example 347, hydrochloride] with proton pump (H+/K+-ATPase) (Sus scrofa), please?
-0.74

Recorded log10(IC50) for `Cc1cc(OC(F)(F)F)ccc1Nc1ccc2c(C(=O)N(C)C)cn(S(=O)(=O)c3cccnc3)c2c1` with proton pump (H+/K+-ATPase) (Sus scrofa), please?
1.57

###

# TESTED TARGET: proton pump (H+/K+-ATPase) (Sus scrofa)
# Construct: Gastric vesicles were prepared from hog stomach via centrifugal separation
# MEASUREMENT DESCRIPTION: Measurement of inhibitory effects on proton pump (H+/K+-ATPase) activities
# PARTICULARS: hog gastric vesicles, K+-specific H+/K+-ATPase activity, Tris-HCl buffer pH 7.4, 37° C. for 40 minutes, malachite green Pi readout
Where a name gives a salt, the structure may show the parent alone.
METRIC: pIC50
Give only the number. pIC50 is defined as minus log10 of concentration in molar units.

Below, each entry is followed by its recorded pIC50 result.
CNCc1cn(S(=O)(=O)c2cccnc2)c2cc(Nc3cccc(Br)c3)ccc12 [Example 5, hydrochloride]: 6.10
CNCc1cn(S(=O)(=O)c2cccc(C(F)(F)F)c2)c2cc(Nc3ccc(C)cc3F)ccc12 [Example 183, hydrochloride]: 6.23
CNCc1cn(S(=O)(=O)c2cccc(F)c2)c2cc(Nc3ccc(Cl)nc3Cl)ncc12 [Example 357, hydrochloride]: 6.02
CNCc1cn(S(=O)(=O)c2cccnc2)c2cc(Oc3ncc(C(F)(F)F)cc3Cl)ccc12 [Example 312, hydrochloride]: 6.18
CNCc1cn(S(=O)(=O)c2cccc(C(F)(F)F)c2)c2cc(Nc3ccc(Cl)cc3C(F)(F)F)ccc12 [Example 186, hydrochloride]: 6.39

Recorded pIC50 for CNCc1cn(S(=O)(=O)c2cccc(C(F)(F)F)c2)c2cc(Nc3ccc(OC(F)(F)F)cc3OC)ccc12 [Example 190, hydrochloride] with proton pump (H+/K+-ATPase) (Sus scrofa), please?
6.36

Recorded pIC50 for CNCc1cn(S(=O)(=O)c2cccc(C)c2)c2cc(Nc3ccc(C)cc3F)ccc12 [Example 226, hydrochloride] with proton pump (H+/K+-ATPase) (Sus scrofa), please?
5.94

Recorded pIC50 for `CNCc1cn(S(=O)(=O)c2cccnc2)c2cc(-c3ccnn3C)ccc12` with proton pump (H+/K+-ATPase) (Sus scrofa), please?
4.40

Recorded pIC50 for CNCc1cn(S(=O)(=O)c2cccnc2)c2cc(Nc3ccc(C(=O)OC)cc3Cl)ccc12 [Example 57, hydrochloride] with proton pump (H+/K+-ATPase) (Sus scrofa), please?
6.37

Recorded pIC50 for CNCc1cn(S(=O)(=O)c2cccnc2)c2cc(Cc3ccc(Cl)cc3C(F)(F)F)ccc12 [Example 275, hydrochloride] with proton pump (H+/K+-ATPase) (Sus scrofa), please?
5.75

Recorded pIC50 for CNCc1cn(S(=O)(=O)c2cccc(Cl)c2)c2cc(Nc3ccc(C)c(F)c3F)ccc12 [Example 156, hydrochloride] with proton pump (H+/K+-ATPase) (Sus scrofa), please?
6.42

Recorded pIC50 for CNCc1cn(S(=O)(=O)c2cccnc2)c2cc(-c3cnc(OC)nc3)ccc12 [Example 259, hydrochloride] with proton pump (H+/K+-ATPase) (Sus scrofa), please?
4.40

Recorded pIC50 for CNCc1cn(S(=O)(=O)c2cccc(OC(F)F)c2)c2cc(Nc3ccc(Cl)cc3C(F)(F)F)ccc12 [Example 177, hydrochloride] with proton pump (H+/K+-ATPase) (Sus scrofa), please?
5.85

Recorded pIC50 for CNCc1cn(S(=O)(=O)c2cccc(OC)c2)c2cc(Nc3ccc(Cl)cc3C(F)(F)F)ccc12 [Example 165, hydrochloride] with proton pump (H+/K+-ATPase) (Sus scrofa), please?
7.10
